Value source: the supplement of paper PMC10065799

Molecular target: c-Src SH2
Experiment: SH2 binding enrichment of the phosphorylated peptide, bacterial display (enrichment ratio); higher = better substrate or ligand; peptides without Tyr show the background
measured metric: SH2 binding enrichment

TSLAQYDSNSK [BMX_Y216]	0.438
ITVCDYTNPCP [MYD88_Y276_T281P]	0.686
ANYTEYVATSW [CDKL5_Y171_R175S]	0.592

a. NDENIYKGLPD [VAV3_Y141_D139N]
b. VMAALYGRLYE [BTD_Y536_T532M]
c. TAGFIYEKWEI [TEC_Y360_S359I]
Q: Please produce an ascending ranking of these sequences based on SH2 binding enrichment. Form field (ranking): labels in requested order.
Result: a, c, b

###

Molecular target: c-Src SH2;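 note: peptide library displayed on the E. coli surface as eCPX fusions, selected cells deep-sequenced, score is each peptide's frequency after selection divided by its frequency in the input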
Assay: SH2 binding enrichment of the phosphorylated peptide, bacterial display (enrichment ratio); higher = better substrate or ligand; peptides without Tyr show the background
measured metric: SH2 binding enrichment

I. HHIDFYKKTTN [FGFR1_Y654_YF]
II. LRLSSYSTTIR [CYP7B1_Y365]
III. SKNSKCNAEST [PSEN1_Y315_Y315C]
Q: // smallest SH2 binding enrichment at index 0, largest at the end # answer = labels listed in requested order
Result: I, III, II

###

Target: FGFR3 (UniProt P22607)
Sequence (P22607 whole entry, looked up): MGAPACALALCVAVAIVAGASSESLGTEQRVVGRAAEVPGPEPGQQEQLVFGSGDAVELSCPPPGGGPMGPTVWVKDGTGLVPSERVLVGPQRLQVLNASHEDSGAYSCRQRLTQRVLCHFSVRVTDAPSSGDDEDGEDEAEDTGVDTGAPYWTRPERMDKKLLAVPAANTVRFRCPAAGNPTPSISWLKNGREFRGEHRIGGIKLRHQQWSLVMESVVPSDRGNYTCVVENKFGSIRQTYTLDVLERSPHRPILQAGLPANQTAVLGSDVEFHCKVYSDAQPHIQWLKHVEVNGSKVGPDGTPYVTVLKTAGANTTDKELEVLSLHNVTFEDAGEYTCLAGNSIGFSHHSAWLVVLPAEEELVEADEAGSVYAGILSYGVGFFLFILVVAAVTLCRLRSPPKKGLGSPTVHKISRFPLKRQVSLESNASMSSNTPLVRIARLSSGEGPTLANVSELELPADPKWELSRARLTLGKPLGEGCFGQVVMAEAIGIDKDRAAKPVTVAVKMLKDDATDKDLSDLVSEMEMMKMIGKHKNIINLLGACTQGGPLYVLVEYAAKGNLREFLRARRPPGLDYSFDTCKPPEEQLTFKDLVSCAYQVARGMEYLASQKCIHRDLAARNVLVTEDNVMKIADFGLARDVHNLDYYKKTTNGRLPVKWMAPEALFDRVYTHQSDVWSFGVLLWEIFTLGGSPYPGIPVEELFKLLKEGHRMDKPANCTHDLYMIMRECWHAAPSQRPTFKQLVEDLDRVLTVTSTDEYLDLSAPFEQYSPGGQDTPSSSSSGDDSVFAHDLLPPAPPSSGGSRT
Assay: phosphorylation enrichment, bacterial display (enrichment ratio); higher = better substrate or ligand; peptides without Tyr show the background
measured metric: phosphorylation enrichment
Hey, just send me the number, nothing else.

Worked cases, phosphorylation enrichment given:
MKALGYFAVVK [OPA1_Y498_T503K]	0.692
ATVRPYRPFII [LRP5_Y1528_A1525V_YF]	0.459
TSLAQYDSNSK [BMX_Y216]	0.443
KTTSGYAGGLS [KRT8_Y419]	0.376
FADIAYNFRDG [PAH_Y166_H170D_YF]	0.613

The sequence listed as GPRKAYELSQR [SETX_Y1297] shows phosphorylation enrichment equal to 0.355

Data point: IPPRRYFRSGV [STAMBP_Y36] ; phosphorylation enrichment = 0.61

Looking up NFFDLYGGEKF [PTPN11_Y66_D61N_YF] , I found its phosphorylation enrichment recorded as 0.61

###

Target: Fyn (UniProt P06241)
Sequence (P06241 whole entry, looked up): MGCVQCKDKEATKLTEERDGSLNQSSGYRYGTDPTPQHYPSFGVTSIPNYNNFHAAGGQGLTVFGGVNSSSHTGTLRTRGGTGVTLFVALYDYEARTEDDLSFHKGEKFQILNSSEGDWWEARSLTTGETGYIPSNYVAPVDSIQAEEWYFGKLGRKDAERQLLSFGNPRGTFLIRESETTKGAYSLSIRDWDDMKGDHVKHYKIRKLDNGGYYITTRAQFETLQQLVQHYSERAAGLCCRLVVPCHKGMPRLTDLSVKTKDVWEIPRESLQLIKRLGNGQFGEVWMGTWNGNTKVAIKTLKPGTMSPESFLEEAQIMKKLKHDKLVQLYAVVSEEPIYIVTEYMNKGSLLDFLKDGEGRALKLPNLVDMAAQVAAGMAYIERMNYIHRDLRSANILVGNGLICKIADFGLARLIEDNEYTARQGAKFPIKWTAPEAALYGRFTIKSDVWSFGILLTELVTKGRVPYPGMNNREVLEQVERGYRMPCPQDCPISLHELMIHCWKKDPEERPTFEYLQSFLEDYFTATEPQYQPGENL
Assay: phosphorylation enrichment, bacterial display (enrichment ratio); higher = better substrate or ligand; peptides without Tyr show the background
Measured phosphorylation enrichment values are reported for all entries that follow.
Form field (numeric): enter value without unit.

QEIATYPRLLE [KRT14_Y415_R416P]	0.611
SSQHRYSTPHT [RAF1_Y232_A237T]	0.348
SVMAEYGLYAA [VSX2_Y219_G223A]	7.34
NKHTTYTMEHI [ACTN1_Y708_N707T]	0.419
KLSCSYSHLSA [C4BPA_Y470_W473L]	0.572

Field phosphorylation enrichment (entry SLLPDYEDEEE [ZNF830_Y159] ) reads 0.646

Input GDSVQYNRTTD [MLPH_Y454_P451S] . Output phosphorylation enrichment: 0.469

# phosphorylation enrichment of RQNRFYDAKVR [FKBP6_Y188] = 0.427

###

Target: MERTK (UniProt Q12866)
Sequence (Q12866 whole entry, looked up): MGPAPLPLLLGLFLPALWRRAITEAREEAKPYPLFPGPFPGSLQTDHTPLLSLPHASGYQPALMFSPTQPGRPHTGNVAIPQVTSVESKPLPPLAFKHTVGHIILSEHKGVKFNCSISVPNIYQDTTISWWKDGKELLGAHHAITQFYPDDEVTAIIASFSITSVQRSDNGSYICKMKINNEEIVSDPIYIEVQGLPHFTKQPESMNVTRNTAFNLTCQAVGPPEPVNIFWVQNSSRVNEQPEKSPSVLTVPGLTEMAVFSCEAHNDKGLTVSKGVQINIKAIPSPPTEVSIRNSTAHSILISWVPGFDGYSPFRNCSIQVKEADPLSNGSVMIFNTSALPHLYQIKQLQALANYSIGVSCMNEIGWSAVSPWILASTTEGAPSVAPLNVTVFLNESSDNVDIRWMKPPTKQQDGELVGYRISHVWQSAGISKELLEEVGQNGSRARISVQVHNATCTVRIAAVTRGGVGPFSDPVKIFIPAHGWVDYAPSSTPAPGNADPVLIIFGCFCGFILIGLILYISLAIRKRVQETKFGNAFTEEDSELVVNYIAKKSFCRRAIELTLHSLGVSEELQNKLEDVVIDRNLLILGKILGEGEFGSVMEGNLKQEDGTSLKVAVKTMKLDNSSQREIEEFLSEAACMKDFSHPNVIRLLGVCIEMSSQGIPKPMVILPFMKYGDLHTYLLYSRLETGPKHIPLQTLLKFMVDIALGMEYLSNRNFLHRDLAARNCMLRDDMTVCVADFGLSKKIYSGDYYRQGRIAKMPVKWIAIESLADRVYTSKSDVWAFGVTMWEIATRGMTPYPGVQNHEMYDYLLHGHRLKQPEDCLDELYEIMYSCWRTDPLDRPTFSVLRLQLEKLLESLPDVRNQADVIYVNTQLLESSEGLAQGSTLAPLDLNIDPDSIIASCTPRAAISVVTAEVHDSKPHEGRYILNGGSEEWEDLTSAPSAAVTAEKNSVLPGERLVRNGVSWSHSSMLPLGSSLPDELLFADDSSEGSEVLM
Experiment: phosphorylation enrichment, bacterial display (enrichment ratio); higher = better substrate or ligand; peptides without Tyr show the background
measured metric: phosphorylation enrichment
Lab note: jot down the number only; don't add units.

Worked cases, phosphorylation enrichment given:
ARSHIYTLASC [MEFV_Y741_F743L]	1.17
TAALWYIFLHT [ENG_Y612_S615L_YF]	0.555
TDLAYYLVCKG [ASL_Y376_R379C]	0.79

// MSLPGYKLVTG [GJA1_Y286_P283L] : phosphorylation enrichment value = 0.364

# phosphorylation enrichment of GGRIDYIAGLV [APRT_Y60_D65V] = 0.389

The reported value for ATHSRYRLNDY [CLDN14_Y233_G232R] in terms of phosphorylation enrichment is 0.459

For this sequence ( LEFAKYGSLRG [RET_Y809_V804L_YF] ), measured phosphorylation enrichment is 0.388
